- Protocol Details: Pharmacokinetics in mouse
- Format: in vivo
- Run Conditions: blood, PO dose at 10 mg/kg
Property Label: Cmax

Lab note: measured Cmax of C=CC(=O)Nc1cccc(CNc2nc(Nc3ccc(N4CCN(C)CC4)cc3OC)ncc2Cl)c1 was 294 ng/mL

----------
- Target: Ba/F3 JAK1 (Homo sapiens)
- Construct: candidate: TEL (ETV6) N-terminal oligomerisation domain
- Protocol Details: CellTiter-Glo cell proliferation, Ba/F3 JAK1
- Assay type: cell-based, murine
- Run Conditions: 72 hours; read-out: Ba/F3 IC50 JAK1
Rule: GI50 below 3 µM gives criterion met. Equal to or above 3 µM gives criterion not met.

# example entries with known answers
>>> class("C=CC(=O)Nc1cccc(CN2CCc3cnc(Nc4cnn(C)c4)nc32)c1 [Compound 48]")
"criterion not met"
>>> class("C=CC(=O)Nc1ccc(CN2C(=O)NCc3cnc(Nc4ccc(N5CCN(C)CC5)cc4)nc32)cc1 [Compound 34]")
"criterion not met"
>>> class("C=CC(=O)Nc1ccc(CNc2nc(Nc3ccc(N4CCN(C)CC4)c(F)c3)ncc2Cl)cc1 [Compound 16]")
"criterion met"

Continue with the compound presented below.
query: Threshold test, GI50 < 3 µM: C=CC(=O)Nc1cccc(CNc2nc(Nc3cnn(CCOCCOCCOCCNC(=O)CCCC[C@@H]4SC[C@@H]5NC(=O)N[C@@H]54)c3)ncc2Cl)c1 [Compound 93]
result: criterion not met

----------
- Target: Ba/F3 ABL (Homo sapiens, UniProt P00519)
- Construct: candidates: BCR or TEL (ETV6)
- Sequence (P00519 whole entry, change not shown): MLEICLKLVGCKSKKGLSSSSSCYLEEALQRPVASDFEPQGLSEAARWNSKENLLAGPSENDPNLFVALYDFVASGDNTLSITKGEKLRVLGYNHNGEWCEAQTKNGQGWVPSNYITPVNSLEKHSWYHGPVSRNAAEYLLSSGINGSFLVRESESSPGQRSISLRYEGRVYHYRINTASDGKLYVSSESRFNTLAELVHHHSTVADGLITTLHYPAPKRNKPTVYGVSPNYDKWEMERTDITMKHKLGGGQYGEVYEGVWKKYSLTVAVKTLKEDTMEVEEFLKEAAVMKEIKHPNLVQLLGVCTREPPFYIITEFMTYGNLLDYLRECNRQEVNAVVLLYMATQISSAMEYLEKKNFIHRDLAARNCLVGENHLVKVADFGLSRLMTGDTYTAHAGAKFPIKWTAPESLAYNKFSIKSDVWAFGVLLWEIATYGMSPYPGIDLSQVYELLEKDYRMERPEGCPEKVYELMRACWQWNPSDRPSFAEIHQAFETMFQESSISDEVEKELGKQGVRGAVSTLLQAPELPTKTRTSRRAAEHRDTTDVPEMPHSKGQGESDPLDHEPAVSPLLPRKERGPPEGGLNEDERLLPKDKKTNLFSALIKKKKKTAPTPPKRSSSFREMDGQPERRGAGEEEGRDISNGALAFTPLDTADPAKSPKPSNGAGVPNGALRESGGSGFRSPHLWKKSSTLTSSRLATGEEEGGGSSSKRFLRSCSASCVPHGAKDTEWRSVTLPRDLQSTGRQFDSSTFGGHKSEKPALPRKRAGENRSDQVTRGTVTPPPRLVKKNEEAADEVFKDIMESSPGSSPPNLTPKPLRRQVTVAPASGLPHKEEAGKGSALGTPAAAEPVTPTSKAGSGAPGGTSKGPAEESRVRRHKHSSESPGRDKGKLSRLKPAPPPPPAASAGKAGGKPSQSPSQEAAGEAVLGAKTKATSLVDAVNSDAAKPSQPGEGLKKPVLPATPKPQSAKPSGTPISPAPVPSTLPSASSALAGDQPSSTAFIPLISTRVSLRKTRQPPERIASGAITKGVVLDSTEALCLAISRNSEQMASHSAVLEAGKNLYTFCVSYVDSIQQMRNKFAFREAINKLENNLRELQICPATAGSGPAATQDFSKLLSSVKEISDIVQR
- Protocol Details: CellTiter-Glo cell proliferation, Ba/F3 ABL
- Assay type: cell-based, murine
- Run Conditions: 72 hours; read-out: Ba/F3 IC50 ABL
Rule: GI50 below 3 µM gives t. Equal to or above 3 µM gives f.

# example entries with known answers
>>> class("C=CC(=O)Nc1ccc(CNc2nc(Nc3ccc(N4CCN(C)CC4)cc3)ncc2Cl)cc1")
"t"
>>> class("C=CC(=O)Nc1ccc(CNc2cc(Nc3ccc(N4CCN(C)CC4)cc3)ncn2)cc1")
"f"

query: Threshold test, GI50 < 3 µM: C=CC(=O)Nc1cccc(CNc2nc(Nc3cnn(CCOCCOCCOCCNC(=O)CCCC[C@@H]4SC[C@@H]5NC(=O)N[C@@H]54)c3)ncc2Cl)c1
result: f

----------
- Tested on: NKL (a Natural Killer Cell Lymphoma (NKCL) cell line)
- Protocol Details: CellTiter-Glo cell proliferation, NKL cancer cell line
- Assay type: cell-based
- Run Conditions: 72 hours, read-out: Cancer cell lines IC50 NKL
Property Label: pIC50
Answers are plain numbers, as −log10 of the molar value.

Lab note: measured pIC50 of C=CC(=O)Nc1cccc(CNc2nc(Nc3ccc(N4CCN(C)CC4)cc3OC)ncc2Cl)c1 was 7.71

----------
- Protocol Details: Pharmacokinetics in mouse
- Assay type: in vivo
- Run Conditions: blood, PO dose at 10 mg/kg
Property Label: Tmax (h)
Answers are plain numbers, in h.

Lab note: measured Tmax of C=CC(=O)Nc1cccc(CNc2nc(Nc3ccc(N4CCN(C)CC4)cc3OC)ncc2Cl)c1 [Compound 2] was 2

----------
- Target: Ba/F3 TYK2 (Homo sapiens, UniProt P29597)
- Construct: The likeliest candidate is TEL (ETV6) N-terminal oligomerisation domain fused to the TYK2 kinase domain; BCR, another partner, or no partner are also possible
- Sequence (P29597 whole entry, change not shown, the tested form may be a part): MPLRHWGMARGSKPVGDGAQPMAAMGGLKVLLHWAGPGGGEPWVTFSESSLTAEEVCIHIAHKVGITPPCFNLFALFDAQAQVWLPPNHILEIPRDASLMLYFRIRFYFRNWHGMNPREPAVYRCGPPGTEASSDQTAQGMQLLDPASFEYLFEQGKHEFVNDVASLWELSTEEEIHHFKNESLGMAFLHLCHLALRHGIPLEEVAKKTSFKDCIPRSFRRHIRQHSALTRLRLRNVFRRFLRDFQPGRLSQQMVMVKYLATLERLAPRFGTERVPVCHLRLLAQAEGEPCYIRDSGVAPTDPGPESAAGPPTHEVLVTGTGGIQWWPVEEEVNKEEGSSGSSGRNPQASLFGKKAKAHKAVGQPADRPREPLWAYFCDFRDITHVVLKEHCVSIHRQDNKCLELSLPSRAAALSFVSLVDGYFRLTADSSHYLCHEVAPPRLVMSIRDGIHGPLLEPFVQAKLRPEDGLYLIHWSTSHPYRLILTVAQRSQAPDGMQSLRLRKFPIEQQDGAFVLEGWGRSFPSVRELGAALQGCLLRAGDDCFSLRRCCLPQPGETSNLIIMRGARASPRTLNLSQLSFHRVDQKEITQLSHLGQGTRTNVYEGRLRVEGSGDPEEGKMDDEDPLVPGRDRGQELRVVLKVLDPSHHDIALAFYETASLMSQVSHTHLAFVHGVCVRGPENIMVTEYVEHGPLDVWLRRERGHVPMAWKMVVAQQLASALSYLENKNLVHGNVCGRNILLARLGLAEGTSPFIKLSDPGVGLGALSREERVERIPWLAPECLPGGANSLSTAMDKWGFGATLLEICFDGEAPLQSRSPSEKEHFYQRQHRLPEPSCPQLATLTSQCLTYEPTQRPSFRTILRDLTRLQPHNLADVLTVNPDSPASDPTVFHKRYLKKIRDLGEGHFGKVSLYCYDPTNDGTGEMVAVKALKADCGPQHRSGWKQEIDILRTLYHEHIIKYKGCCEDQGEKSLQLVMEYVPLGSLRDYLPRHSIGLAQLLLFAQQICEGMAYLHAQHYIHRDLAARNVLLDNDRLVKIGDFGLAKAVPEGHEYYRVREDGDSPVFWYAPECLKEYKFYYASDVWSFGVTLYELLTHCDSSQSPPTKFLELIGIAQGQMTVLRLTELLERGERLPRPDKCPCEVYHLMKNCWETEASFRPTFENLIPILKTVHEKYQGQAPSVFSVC
- Protocol Details: CellTiter-Glo cell proliferation, Ba/F3 TYK2
- Assay type: cell-based, murine
- Run Conditions: 72 hours; read-out: Ba/F3 IC50 TYK2
Rule: GI50 below 10 µM gives yes. Equal to or above 10 µM gives no.

# example entries with known answers
>>> class("C=CC(=O)Nc1cccc(CN2CCc3cnc(Nc4cnn(C)c4)nc32)c1")
"yes"
>>> class("C=CC(=O)Nc1cccc(CN2C(=O)N(C)Cc3cnc(Nc4cnn(C)c4)nc32)c1")
"no"
>>> class("C=CC(=O)Nc1ccc(CN2C(=O)NCc3cnc(Nc4ccc(N5CCN(C)CC5)cc4)nc32)cc1")
"no"
>>> class("C=CC(=O)Nc1cccc(CNc2nc(Nc3cc(F)c(C4CCOCC4)c(F)c3)ncc2Cl)c1")
"no"
>>> class("C=CC(=O)Nc1cccc(CNc2cc(Nc3ccc(N4CCN(C)CC4)cc3OC)ncn2)c1")
"yes"

query: Threshold test, GI50 < 10 µM: C=CC(=O)Nc1ccc(CNc2nc(Nc3ccc(N4CCOCC4)c(F)c3)ncc2Cl)cc1
result: yes

----------
- Target: Ba/F3 JAK2 (Homo sapiens, UniProt O60674)
- Construct: candidate: TEL (ETV6) N-terminal oligomerisation domain
- Sequence (O60674 whole entry, change not shown, the tested form may be a part): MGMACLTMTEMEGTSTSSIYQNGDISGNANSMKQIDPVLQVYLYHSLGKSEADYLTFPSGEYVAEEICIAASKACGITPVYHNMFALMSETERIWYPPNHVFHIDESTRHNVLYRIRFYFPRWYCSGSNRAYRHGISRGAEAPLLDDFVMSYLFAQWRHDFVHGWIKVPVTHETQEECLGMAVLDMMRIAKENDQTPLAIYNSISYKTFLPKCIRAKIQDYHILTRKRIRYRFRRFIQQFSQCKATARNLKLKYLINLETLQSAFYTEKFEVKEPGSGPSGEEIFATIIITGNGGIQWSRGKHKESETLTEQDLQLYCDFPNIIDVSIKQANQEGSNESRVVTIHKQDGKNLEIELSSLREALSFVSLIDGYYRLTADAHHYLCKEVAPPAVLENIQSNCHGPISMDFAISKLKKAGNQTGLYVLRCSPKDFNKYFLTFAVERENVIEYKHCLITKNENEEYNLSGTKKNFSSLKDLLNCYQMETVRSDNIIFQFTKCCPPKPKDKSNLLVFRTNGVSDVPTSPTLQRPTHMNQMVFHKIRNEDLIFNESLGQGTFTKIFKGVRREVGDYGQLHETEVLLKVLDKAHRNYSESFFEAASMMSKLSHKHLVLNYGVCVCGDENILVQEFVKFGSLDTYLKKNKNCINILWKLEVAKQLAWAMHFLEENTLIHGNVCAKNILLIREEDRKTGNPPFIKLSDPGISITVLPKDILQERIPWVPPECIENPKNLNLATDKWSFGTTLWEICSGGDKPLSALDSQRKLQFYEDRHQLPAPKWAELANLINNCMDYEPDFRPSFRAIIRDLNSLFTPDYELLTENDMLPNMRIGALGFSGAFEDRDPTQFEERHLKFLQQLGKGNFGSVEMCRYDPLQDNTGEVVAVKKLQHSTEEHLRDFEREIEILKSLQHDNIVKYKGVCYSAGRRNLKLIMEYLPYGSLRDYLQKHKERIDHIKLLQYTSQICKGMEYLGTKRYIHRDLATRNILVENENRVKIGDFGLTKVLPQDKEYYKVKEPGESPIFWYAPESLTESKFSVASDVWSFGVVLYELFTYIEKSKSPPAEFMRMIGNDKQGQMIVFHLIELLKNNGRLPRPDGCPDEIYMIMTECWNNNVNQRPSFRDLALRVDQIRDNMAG
- Protocol Details: CellTiter-Glo cell proliferation, Ba/F3 JAK2
- Type: cell-based, murine
- Run Conditions: 72 hours; read-out: Ba/F3 IC50 JAK2
Property Label: GI50 (µM)
Numbers only, in µM.

>>> endpoint_result("C=CC(=O)Nc1ccc(CN2C(=O)N(C)Cc3cnc(Nc4ccc(N5CCN(C)CC5)cc4)nc32)cc1")
14.6

Can you give me GI50 for all of these, one by one?
1. C=CC(=O)Nc1cccc(CNc2cc(Nc3ccc(N4CCN(C)CC4)cc3OC)ncn2)c1
2. C=CC(=O)Nc1cccc(CN2CCc3cnc(Nc4cnn(C)c4)nc32)c1
3. C=CC(=O)Nc1ccc(CN2C(=O)NCc3cnc(Nc4ccc(N5CCN(C)CC5)cc4)nc32)cc1
4. C=CC(=O)Nc1ccc(CNc2nc(Nc3ccc(N4CCN(C)CC4)cc3)ncc2Cl)cc1
5. C=CC(=O)Nc1ccc(CNc2nc(Nc3ccc(N4CCOCC4)c(F)c3)ncc2Cl)cc1
6. C=CC(=O)Nc1ccc(CNc2nc(Nc3ccc(N4CCN(C)CC4)c(F)c3)ncc2Cl)cc1

result:
1: 2.3; 2: 18.1; 3: 30.1; 4: 0.2; 5: 1.87; 6: 0.538

----------
Would you mind telling me the reported IC50 of each entry?
- Target: JAK3 (Homo sapiens)
- Sequence (P52333 1-1124): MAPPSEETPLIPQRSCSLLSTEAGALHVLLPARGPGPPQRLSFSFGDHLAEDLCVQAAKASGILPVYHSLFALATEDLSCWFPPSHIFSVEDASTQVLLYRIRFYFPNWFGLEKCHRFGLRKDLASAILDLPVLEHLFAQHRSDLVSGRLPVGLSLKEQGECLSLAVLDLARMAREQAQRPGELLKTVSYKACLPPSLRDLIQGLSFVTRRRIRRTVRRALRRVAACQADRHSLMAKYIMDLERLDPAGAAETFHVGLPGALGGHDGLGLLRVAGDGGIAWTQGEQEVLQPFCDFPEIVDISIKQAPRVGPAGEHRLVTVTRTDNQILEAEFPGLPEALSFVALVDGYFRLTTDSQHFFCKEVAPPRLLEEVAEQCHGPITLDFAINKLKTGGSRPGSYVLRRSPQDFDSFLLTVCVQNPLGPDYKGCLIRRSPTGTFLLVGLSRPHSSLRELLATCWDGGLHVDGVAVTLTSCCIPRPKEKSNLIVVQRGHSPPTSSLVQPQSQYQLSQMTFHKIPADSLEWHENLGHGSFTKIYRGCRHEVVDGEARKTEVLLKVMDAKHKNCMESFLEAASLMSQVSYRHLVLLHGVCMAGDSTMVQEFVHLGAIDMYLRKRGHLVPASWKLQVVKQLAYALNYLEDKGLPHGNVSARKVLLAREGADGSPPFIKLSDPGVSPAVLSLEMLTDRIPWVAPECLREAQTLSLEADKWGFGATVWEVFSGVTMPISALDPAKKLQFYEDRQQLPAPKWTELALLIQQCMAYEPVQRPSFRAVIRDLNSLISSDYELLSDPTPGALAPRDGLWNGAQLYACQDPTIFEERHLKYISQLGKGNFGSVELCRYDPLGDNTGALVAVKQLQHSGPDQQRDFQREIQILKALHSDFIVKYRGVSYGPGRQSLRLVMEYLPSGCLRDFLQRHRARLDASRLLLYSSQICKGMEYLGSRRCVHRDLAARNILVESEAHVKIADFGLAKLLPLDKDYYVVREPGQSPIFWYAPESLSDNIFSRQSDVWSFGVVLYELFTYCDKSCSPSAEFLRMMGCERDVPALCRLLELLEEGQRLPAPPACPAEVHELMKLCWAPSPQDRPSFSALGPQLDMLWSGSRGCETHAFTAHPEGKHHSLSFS

Recorded results for 2 compounds are shown here.
>>> endpoint_result("C=CC(=O)Nc1cccc(CN2C(=O)N(C)Cc3cnc(Nc4cnn(C)c4)nc32)c1")
"20.9 nM"
>>> endpoint_result("C=CC(=O)Nc1cccc(CNc2nc(Nc3cc(Cl)c(C4CCOCC4)c(Cl)c3)ncc2Cl)c1")
"100 nM"

Field: next compound
Lab note: measured IC50 of C=CC(=O)Nc1cccc(CNc2nc(Nc3cc(F)c(C4CCOCC4)c(F)c3)ncc2Cl)c1 was 20.5 nM

----------
Would you mind telling me the reported GI50 of each entry?
- Target: Ba/F3 JAK1 (Homo sapiens, UniProt P23458)
- Construct: candidate: TEL (ETV6) N-terminal oligomerisation domain
- Sequence (P23458 whole entry, change not shown, the tested form may be a part): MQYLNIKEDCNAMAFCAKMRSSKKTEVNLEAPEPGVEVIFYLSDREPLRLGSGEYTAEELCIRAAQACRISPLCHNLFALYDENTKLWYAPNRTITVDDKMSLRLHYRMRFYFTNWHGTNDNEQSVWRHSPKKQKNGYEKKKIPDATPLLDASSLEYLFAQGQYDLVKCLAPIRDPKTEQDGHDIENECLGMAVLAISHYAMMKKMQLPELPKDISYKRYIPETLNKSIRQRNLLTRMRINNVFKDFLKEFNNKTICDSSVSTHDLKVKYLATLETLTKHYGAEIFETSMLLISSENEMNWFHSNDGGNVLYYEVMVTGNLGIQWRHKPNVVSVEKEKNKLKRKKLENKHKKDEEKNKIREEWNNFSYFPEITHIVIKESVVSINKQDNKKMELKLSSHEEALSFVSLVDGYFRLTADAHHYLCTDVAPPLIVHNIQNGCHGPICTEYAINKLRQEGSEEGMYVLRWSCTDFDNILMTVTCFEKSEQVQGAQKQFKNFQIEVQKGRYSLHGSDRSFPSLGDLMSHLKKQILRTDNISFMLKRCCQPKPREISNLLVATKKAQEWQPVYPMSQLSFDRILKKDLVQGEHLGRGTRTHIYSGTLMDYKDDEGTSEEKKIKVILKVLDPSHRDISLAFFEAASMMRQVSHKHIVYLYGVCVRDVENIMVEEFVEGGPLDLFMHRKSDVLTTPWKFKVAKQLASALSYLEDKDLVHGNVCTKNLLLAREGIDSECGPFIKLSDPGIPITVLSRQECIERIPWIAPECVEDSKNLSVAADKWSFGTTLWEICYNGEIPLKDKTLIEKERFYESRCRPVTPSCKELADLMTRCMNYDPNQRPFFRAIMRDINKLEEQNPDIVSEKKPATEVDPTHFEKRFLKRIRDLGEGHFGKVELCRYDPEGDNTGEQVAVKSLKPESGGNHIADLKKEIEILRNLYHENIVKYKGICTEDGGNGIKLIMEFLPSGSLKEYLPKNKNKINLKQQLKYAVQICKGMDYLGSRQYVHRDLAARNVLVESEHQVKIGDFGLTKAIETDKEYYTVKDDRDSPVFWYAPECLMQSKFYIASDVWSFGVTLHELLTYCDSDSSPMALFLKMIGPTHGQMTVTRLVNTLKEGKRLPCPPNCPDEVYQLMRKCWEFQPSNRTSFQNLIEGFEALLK
- Protocol Details: CellTiter-Glo cell proliferation, Ba/F3 JAK1
- Assay type: cell-based, murine
- Run Conditions: 72 hours; read-out: Ba/F3 IC50 JAK1
Numbers only, in nM.

>>> endpoint_result("C=CC(=O)Nc1ccc(CNc2nc(Nc3ccc(N4CCN(C)CC4)cc3)ncc2Cl)cc1 [Compound 15]")
172
>>> endpoint_result("C=CC(=O)Nc1cccc(CNc2cc(Nc3ccc(N4CCN(C)CC4)cc3OC)ncn2)c1 [Compound 25]")
2880

Can you give me GI50 for all of these, one by one?
1. C=CC(=O)Nc1cccc(CN2C(=O)N(C)Cc3cnc(Nc4cnn(C)c4)nc32)c1 [Compound 43]
2. C=CC(=O)Nc1ccc(CN2C(=O)N(C)Cc3cnc(Nc4ccc(N5CCN(C)CC5)cc4)nc32)cc1 [Compound 35]
3. C=CC(=O)Nc1ccc(CNc2nc(Nc3ccc(N4CCOCC4)c(F)c3)ncc2Cl)cc1 [Compound 14]

result:
14000
87600
1300

Reference source: patent US10017477B2
